Data provenance: patent US20110239316A1

target: C-Met-Rluc (R. reniformis, UniProt P08581 25-1390); assay: cell-based or functional assay
Sequence (P08581 25-1390): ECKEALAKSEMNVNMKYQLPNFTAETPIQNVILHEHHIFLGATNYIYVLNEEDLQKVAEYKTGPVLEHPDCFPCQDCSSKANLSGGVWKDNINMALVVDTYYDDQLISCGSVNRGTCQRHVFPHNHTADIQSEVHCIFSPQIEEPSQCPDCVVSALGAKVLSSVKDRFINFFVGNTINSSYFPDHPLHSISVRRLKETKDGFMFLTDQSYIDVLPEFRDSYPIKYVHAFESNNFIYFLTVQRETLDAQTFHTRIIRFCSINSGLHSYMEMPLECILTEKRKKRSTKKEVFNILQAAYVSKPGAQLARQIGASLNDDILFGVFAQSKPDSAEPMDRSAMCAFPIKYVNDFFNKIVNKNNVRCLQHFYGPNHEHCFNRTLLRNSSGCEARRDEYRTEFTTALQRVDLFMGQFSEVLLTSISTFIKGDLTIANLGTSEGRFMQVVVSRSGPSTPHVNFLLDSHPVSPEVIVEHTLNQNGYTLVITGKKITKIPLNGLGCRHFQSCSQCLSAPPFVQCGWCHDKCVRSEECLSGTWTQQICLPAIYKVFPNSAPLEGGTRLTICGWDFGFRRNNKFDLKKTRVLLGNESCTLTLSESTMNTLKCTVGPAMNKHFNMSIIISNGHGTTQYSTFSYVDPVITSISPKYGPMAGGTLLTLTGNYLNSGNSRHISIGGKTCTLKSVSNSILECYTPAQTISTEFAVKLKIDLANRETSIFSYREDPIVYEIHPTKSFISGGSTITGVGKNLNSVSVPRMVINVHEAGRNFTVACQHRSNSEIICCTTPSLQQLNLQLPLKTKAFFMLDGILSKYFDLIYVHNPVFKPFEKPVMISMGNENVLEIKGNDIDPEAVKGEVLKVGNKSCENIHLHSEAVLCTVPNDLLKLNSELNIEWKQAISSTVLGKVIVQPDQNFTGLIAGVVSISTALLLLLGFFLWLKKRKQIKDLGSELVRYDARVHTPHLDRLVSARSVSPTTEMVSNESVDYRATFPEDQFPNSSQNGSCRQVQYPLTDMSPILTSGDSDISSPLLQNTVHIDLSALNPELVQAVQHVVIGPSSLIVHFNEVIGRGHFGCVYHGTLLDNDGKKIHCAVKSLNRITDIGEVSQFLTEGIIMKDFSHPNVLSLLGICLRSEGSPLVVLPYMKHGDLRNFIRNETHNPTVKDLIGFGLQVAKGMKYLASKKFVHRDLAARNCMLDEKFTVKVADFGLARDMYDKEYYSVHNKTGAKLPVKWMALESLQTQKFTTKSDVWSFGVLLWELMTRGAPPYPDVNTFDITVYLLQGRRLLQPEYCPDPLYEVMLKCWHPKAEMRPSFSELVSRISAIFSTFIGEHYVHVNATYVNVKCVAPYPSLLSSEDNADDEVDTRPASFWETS
Readout name: inhibition of HGF induced BRET signal, c-Met dimerization model (%)
One number for each entry, in %.

Q: inhibition of HGF induced BRET signal, c-Met dimerization model lookup needed for [224G11] [TH7 Hz2] (antibody, human IgG1, V domains shown) VH: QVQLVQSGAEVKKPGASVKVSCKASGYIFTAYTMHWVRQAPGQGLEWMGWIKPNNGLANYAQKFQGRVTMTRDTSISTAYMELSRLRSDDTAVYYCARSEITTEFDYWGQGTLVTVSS VL: DIVMTQSPDSLAVSLGERATINCKSSESVDSYANSFMHWYQQKPGQPPKLLIYRASTRESGVPDRFSGSGSGTDFTLTISSLQAEDVAVYYCQQSKEDPLTFGGGTKVEIKR , thanks.
A: 35.8

Q: inhibition of HGF induced BRET signal, c-Met dimerization model lookup needed for [224G11] [MMCH chim] (antibody, V domains shown) VH: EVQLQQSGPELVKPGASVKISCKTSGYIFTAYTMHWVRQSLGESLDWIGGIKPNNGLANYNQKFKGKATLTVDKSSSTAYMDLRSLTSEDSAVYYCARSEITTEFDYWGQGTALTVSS VL: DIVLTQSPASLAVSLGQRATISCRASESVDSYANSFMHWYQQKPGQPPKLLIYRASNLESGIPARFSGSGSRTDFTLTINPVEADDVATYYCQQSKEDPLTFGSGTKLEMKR , thanks.
A: 52.5

Provide inhibition of HGF induced BRET signal, c-Met dimerization model values for the following items, in order.
1. [224G11] [TH7 Hz3] (antibody, human IgG1, V domains shown) VH: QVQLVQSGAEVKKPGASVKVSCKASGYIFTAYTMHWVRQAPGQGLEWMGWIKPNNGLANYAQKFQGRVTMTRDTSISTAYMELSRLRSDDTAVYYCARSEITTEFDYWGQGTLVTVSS VL: DIVMTQSPDSLAVSLGERATINCKSSESVDSYANSFLHWYQQKPGQPPKLLIYRASTRESGVPDRFSGSGSGTDFTLTISSLQAEDVAVYYCQQSKEDPLTFGGGTKVEIKR
2. [224G11] [MUP9H chim] (antibody, V domains shown) VH: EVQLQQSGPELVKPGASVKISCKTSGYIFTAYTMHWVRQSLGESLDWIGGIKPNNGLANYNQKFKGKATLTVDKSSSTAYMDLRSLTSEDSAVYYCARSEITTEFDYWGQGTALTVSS VL: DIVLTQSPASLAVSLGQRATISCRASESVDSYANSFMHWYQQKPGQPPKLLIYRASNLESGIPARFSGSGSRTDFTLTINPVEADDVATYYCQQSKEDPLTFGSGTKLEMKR

A:
1. 49.4
2. 64.4
